Where do these numbers come from? They come from patent EP4800004A1.

# Test System: human CaSR (Homo sapiens)
# Sequence (P41180 20-1078): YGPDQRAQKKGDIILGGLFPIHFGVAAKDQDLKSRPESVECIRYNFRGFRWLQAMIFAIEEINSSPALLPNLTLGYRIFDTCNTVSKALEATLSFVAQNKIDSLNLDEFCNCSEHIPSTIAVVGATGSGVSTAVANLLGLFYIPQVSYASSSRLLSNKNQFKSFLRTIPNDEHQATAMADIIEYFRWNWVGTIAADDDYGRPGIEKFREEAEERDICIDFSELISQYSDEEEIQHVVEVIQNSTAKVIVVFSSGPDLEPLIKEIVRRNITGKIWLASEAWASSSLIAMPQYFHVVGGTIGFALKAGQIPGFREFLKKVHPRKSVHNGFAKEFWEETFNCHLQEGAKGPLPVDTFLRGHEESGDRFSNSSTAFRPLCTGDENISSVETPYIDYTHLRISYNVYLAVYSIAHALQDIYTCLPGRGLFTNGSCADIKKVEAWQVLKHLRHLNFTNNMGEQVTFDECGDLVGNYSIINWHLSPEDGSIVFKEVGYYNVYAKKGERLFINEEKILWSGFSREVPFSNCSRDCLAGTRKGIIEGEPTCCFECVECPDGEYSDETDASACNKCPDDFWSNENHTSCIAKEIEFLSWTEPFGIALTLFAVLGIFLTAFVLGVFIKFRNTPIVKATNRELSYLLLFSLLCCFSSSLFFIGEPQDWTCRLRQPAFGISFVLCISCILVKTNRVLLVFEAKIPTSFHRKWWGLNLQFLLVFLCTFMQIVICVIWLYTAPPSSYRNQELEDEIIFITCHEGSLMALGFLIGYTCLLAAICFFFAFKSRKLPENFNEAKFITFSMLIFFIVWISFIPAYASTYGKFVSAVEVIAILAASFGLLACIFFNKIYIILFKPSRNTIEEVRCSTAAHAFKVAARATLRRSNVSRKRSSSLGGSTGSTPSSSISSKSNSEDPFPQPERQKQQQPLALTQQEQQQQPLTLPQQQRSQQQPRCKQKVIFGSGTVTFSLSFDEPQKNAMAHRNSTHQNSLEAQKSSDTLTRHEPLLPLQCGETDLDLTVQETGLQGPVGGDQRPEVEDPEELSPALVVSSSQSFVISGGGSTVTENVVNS
# Procedure Text: In vitro CaSR conformational (allosteric) activation, intracellular Ca2+ change in hCaSR-CHO cells (Fluo-4 NW, FLIPR)
# Protocol Conditions: change in intracellular Ca2+ fluorescence intensity
EC50: recorded values
Quantity Kind: EC50 (nM)

> print(dat)
                                   molecule  quantity.kind  measured.result
1  C[C@@H](N[C@H]1CCN(c2ccc(CC(=O)O)cc2F)C1)c1cccc2ccccc12           EC50             27.1
2  COc1cc(CC(=O)O)ccc1N1CC[C@H](N[C@H](C)c2cccc3ccccc23)C1           EC50             42.5
3  Cc1cc(N2CC[C@H](N[C@H](C)c3cccc4ccccc34)C2)ccc1CC(=O)O           EC50               52
4  Cc1cc(CC(=O)O)ccc1N1CC[C@H](N[C@H](C)c2cccc3ccccc23)C1           EC50             20.7
5  C[C@@H](N[C@H]1CCN(c2cc(F)c(CC(=O)O)c(F)c2)C1)c1cccc2ccccc12           EC50             39.8
6  COc1cc(N2CC[C@H](N[C@H](C)c3cccc4ccccc34)C2)ccc1CC(=O)O           EC50             55.5
7  C[C@@H](N[C@H]1CCN(c2ccc(CC(=O)O)c(F)c2)C1)c1cccc2ccccc12           EC50             39.7
8  C[C@@H](N[C@H]1CCN(c2ccc(CC(=O)O)cc2)C1)c1cccc2ccccc12 [Evocalcet, reference compound]           EC50             67.6

* * *

bioavailability: recorded values
# Procedure Text: Pharmacokinetic study in SD rats
# Type: in vivo
# Protocol Conditions: Sprague-Dawley, rat, plasma; male SD rats, single dose via oral gavage; relative to Evocalcet (100)
Quantity Kind: bioavailability (%)

> print(dat)
                                   compound  unit.tag  measured.result
1  Cc1cc(CC(=O)O)ccc1N1CC[C@H](N[C@H](C)c2cccc3ccccc23)C1         %              144
2  C[C@@H](N[C@H]1CCN(c2ccc(CC(=O)O)cc2F)C1)c1cccc2ccccc12         %              136
3  C[C@@H](N[C@H]1CCN(c2ccc(CC(=O)O)cc2)C1)c1cccc2ccccc12 [Evocalcet, reference compound]         %              100

* * *

# Procedure Text: Pharmacokinetic study in SD rats
# Assay type: in vivo
# Protocol Conditions: Sprague-Dawley, rat; male SD rats, single dose via oral gavage, plasma
half-life: recorded values
Quantity Kind: half-life (h)

> print(dat)
                                   compound  quantity.kind  measured.result
1  C[C@@H](N[C@H]1CCN(c2ccc(CC(=O)O)cc2)C1)c1cccc2ccccc12 [Evocalcet, reference compound]      half-life             4.83
2  Cc1cc(CC(=O)O)ccc1N1CC[C@H](N[C@H](C)c2cccc3ccccc23)C1      half-life             5.17
3  C[C@@H](N[C@H]1CCN(c2ccc(CC(=O)O)cc2F)C1)c1cccc2ccccc12      half-life             5.91
